Data provenance is PubChem BioAssay.

# test summary: A549 cell viability effects, profiling panel, calcein-AM fluorescence, 48 h, basal (AID 1162); note: test concentration not given here
# protocol conditions: higher = more signal
measurement label: z-score
// print number alone

Example results:
molecule: C=CCC(OC(C)=O)[C@@H]1[C@@H](N(Cc2cc3ccccc3o2)C(=O)Cc2ccc(F)cc2)c2cc(OCCCO)ccc2N1C(=O)c1ccc2ccccc2c1 (stereo partly drawn)
result number: -0.0032
--
molecule: COC(=O)[C@@]1(Cc2ccc(F)cc2)[C@H]2c3cc(C(=O)N4CCCC4)n(CCN4CNCC4=O)c3C[C@H]2CN1C(=O)c1ccccc1
result number: -0.0823

Lab note: next molecule to report on.
Notebook: `COc1ccc([Si](C)(C)[C@H]2[C@H](CCO)O[C@@]3(C(=O)N(Cc4cccc(N5C(=O)COc6ccccc65)c4)c4ccccc43)[C@@H]2C)cc1` , z-score read as -0.533

----------
# test summary: small-molecule binders of probe aNOTCH3, primary screen, biochemical, small-molecule microarray, 635/667 nm fluorescence (AID 1120);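 note: probe is a biotin-tagged antibody raised against NOTCH3 rather than NOTCH3 protein; score merges spot fluorescence near 667 nm with spot signal to noise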
# protocol conditions: higher = more signal
Here the recorded composite z-score is given for each entry.
The answer should be written as a number, with no unit following it.

Record `O=C(CS)NCCCCCNC(=O)[C@@H]1C[C@@H]2C(=O)N3CCC[C@H]3C(=O)N2[C@@H]1c1cccc(OCCO)c1` , field composite z-score: -0.284

Entry under test: `CO[C@H]1O[C@H](CO)[C@@H](OC(=O)Nc2ccc3c(c2)OCO3)[C@H](OC(=O)c2cc3ccccc3[nH]2)[C@H]1OC(=O)c1cc2ccccc2[nH]1` . Its composite z-score was -0.0932

Form field composite z-score, entry `C=C(COC)C(=O)CC[C@@H](OC(=O)c1cccnc1)c1ccc(OCCO)cc1` : 0.176

Form: compound = `COc1ccc([Si](C)(C)[C@@H]2[C@@H](CCO)O[C@]3(C(=O)N(Cc4ccc(N5CCCCC5=O)cc4)c4ccccc43)[C@H]2C)cc1` ; composite z-score = 0.033

Note to self: composite z-score recorded for `[N-]=[N+]=NCc1ccccc1C[C@@]1(C(=O)N2CCCCC2)N=C(c2ccc(OCCCO)cc2)O[C@@H]1c1ccccc1` was -0.102

Reported composite z-score of CC(C)(C)N1CC=CC23O[C@@H]4C=CCOC(=O)[C@@H]4[C@H]2C(=O)N(CCCCCCO)[C@@H]3C1=O (some centres not stated) : -0.359

Field composite z-score (entry CC(CO)N1C(=O)[C@@H]2[C@H]3C(=O)OCC=C[C@H]3OC23C=CCN(C(C)(C)C)C(=O)[C@@H]13 (some centres not stated) ) reads -0.242

----------
# test summary: small-molecule microarray binders of probe aNog, primary screen, biochemical, biotinylated probe, 635/667 nm fluorescence (AID 1115);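 note: probe is biotinylated aNog protein used at 0.15 µg/mL for 1 h at 4 C; z-score combines 667 nm fluorescence of each spot with its signal to noise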
# protocol conditions: higher = more signal
measurement label: composite z-score
Just the number, please, no unit attached.

Before answering, review these 2 worked examples.
compound: C=CCOC(=O)[C@H]1[C@@H]2C(=O)O[C@@H](c3ccccc3)[C@@H](c3ccccc3)N2[C@@H](c2ccc(OCCOC(=O)[C@@H]3C[C@@H]4C(=O)N[C@@H](CCCCNC(C)=O)C(=O)N4[C@@H]3c3ccc(O)cc3)cc2)[C@]12C(=O)Nc1ccc(I)cc12
result number: 0.381
//
compound: OCCCC1=CC(c2ccc(CN3CCCC3)cc2)N(Cc2sc3ccccc3c2Cl)CC1 (stereo not drawn)
result number: 0.507

The reported value for `CN(C)CCCNC(=O)[C@@H]1c2ccccc2C(=O)N(Cc2ccccc2Cl)[C@H]1c1ccc(CO)cc1` in terms of composite z-score is 0.213

The compound identified as `C=CC[C@]1(C(=O)NCCN2CCOCC2)N=C(c2ccc(OCCCO)cc2)O[C@H]1c1ccccc1CN=[N+]=[N-]` registered its composite z-score at -0.193

Record summary for COc1ccc(C(O)C2C=CC3C(=O)N(c4ccccc4)C(=O)C3N2Nc2ccc([N+](=O)[O-])cc2)cc1 (stereo not drawn) : reported composite z-score = -0.064

Quick note, composite z-score for `NC(=O)NCC#Cc1ccc2c(c1)[C@]1(C(=O)N2)[C@H](C(=O)O)[C@H]2C(=O)O[C@H](c3ccccc3)[C@H](c3ccccc3)N2[C@@H]1c1ccc(OCCO)cc1` landed at -0.265

# composite z-score of NC(=O)N1C(=O)C2C(C1=O)C1C=C(CCCO)C2C(c2cccs2)N1Cc1cccc(OC(F)(F)F)c1 (stereo not drawn) = -0.0132

Sample N#Cc1ccc(C(O)C2C=CC3C(=O)N(c4ccccc4)C(=O)C3N2Nc2ccccc2)cc1 (stereo not drawn) ; composite z-score observed: 1.09

For record `CCOC(=O)C1=C[C@@H](c2ccccc2)N(S(=O)(=O)c2ccc(C)cc2)[C@H]1c1ccccc1Cl` the listed composite z-score is -0.0784

Entry CC(CO)N1C(=O)[C@@H]2[C@H]3C(=O)OCC=C[C@H]3OC23C=CCN(Cc2ccccc2)C(=O)[C@@H]13 (stereo partly drawn) , composite z-score reported as -0.273
